Measured values drawn from ChEMBL document CHEMBL2218924 for this set.

Target Desc: Tyrosine-protein kinase Yes (Homo sapiens)
Reported Conditions: at 10 µM
Value Type: residual activity (%)
Only the number, expressed in %, is required.

# Item Smiles, Display Unit, Experimental Value
measured = [
    ("CC(C)c1nn(-c2c(Cl)cccc2Cl)c2nc(Cc3ccc(OCCO)cc3)[nH]c(=O)c12", "%", 93),
    ("N#C/C(=C1/Nc2ccccc2S1)c1ccnc(NCCc2cccnc2)n1", "%", 48),
    ("N#C/C(=C\\c1ccc(O)c(O)c1)C(=O)NCc1ccccc1", "%", 73),
]

Which residual activity is listed for "O=C1C(Cl)=C(N2C(=O)CCC2=O)C(=O)c2ccccc21" ?
101

What do you get for "O=C(c1ccccc1)c1ccc(N2CCOCC2)cc1O" ?
95

Try "Fc1ccc(-c2nc3n(c2-c2ccncc2)CCS3)cc1" next.
91
